assay: NCI Yeast Anticancer Drug Screen. Data for the rad50 strain (AID 155);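 also: 0% = growth of vehicle-only cultures of the same strain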; conditions: S. cerevisiae rad50 strain growth inhibition; at 50.0 µM; active compounds read high
Compounds without any hit were thinned out: in the full panel of roughly 79,000, 15% have a hit.
Category scheme (growth inhibition): Low = under -10%, Medium = from -10% up to 10%, High = 10% and over

>>> group_label("O=C(CC[n+]1ccccc1)Nc1ccc(F)cc1F")
"High"
>>> group_label("CCN(CC)C(=O)C1CCNCC1")
"Low"
>>> group_label("Cc1cc2c(cc1C)[n+](=O)c(C(=O)C/C(=N/OCCCc1ccccc1)C(=O)Nc1cc(Cl)ccc1Cl)c(C)n2[O-]")
"Low"
>>> group_label("O=C(Nc1ccc(Cl)cc1)Nc1nnc2nc(CC(=O)c3ccccc3)c(=O)[nH]n12")
"High"
>>> group_label("O=C(O)COc1ccc2ccccc2c1")
"Low"

// bin(item) where item = CCOC(=O)C(CSC(=O)c1ccccc1)NC(=O)OCc1ccccc1 (centres undefined) High

Any idea which band ClCCOCc1ccc(Cl)c(Cl)c1 is in? Medium

Tag the class for O=C(O)C[C@H]1CCCCC12CCOC2=O (some centres undefined) High

Band for the recorded growth inhibition of N#Cc1c(-c2ccccc2)c(C#N)c(=O)n(N)c1N ? Medium

Kindly state the category for this compound: COC(=O)c1nn2c(=O)n(C(C)=O)c3ccccc3c2c1C(=O)OC High

Which category does the recorded growth inhibition put COc1ccc(/C=C(\C(C)=O)C(=O)Nc2ccccc2)cc1 in? High

The entry to classify is Cc1c2c(cc3c(=O)ccn(CCN(C)C)c13)c(=O)ccn2CCN(C)C ; which class holds it? Low

Any idea which band COC(=O)Oc1nn(C(=O)OC)c(=O)c2ccccc12 (tested in a mixture with another compound) is in? Medium

---

assay: NCI Yeast Anticancer Drug Screen. Data for the mlh1 rad18 strain (AID 175); details: S. cerevisiae mlh1 rad18 strain growth inhibition; at 50.0 µM; active compounds read high
Compounds without any hit were thinned out: in the full panel of roughly 79,000, 15% have a hit.
Some molecules, each annotated with its measured growth inhibition.
Please state the figure in %; there is no need to write the unit.

Use these answered entries as a reference point.
>>> observed("COc1ccc(CCCNC(=O)Cc2ccccc2CO)cc1OC")
-48.2
>>> observed("C/C(=N\\NC(N)=S)c1sc(-n2nc(-c3ccccc3)cc2-c2ccccc2)nc1C")
15.7
>>> observed("Cn1c2ccccc2c(=O)c2cc(NC(=O)/C=C/C(=O)Nc3ccc4c(c3)c(=O)c3ccccc3n4C)ccc21")
5.9

// returns reported growth inhibition for input CCCCC(CC)CCC(C)=O (stereo not given) -0.9

Would you mind telling me what growth inhibition value was observed for O=[N+]([O-])c1ccccc1S(=O)(=O)N1CCCc2cc(Cl)ccc21 ? 13.4

---

assay: NCI Yeast Anticancer Drug Screen. Data for the mlh1 rad18 strain (AID 175); conditions: S. cerevisiae mlh1 rad18 strain growth inhibition; at 50.0 µM
This is part of a sample that, as a whole, favours compounds with a hit. Of some 79,000 tested, about 15% had one in any assay. The source made the active and inactive calls. Rule as the data show it: active = growth inhibition above about 70%; inactive = the rest.
Your answer must be one of the following: active, inactive

See these solved cases before continuing.
>>> group_label("COc1cc(C=O)c([N+](=O)[O-])cc1OC")
"inactive"
>>> group_label("CCn1c(=O)c2c3ccc(OC(C)=O)cc3[nH]c2c2ccc(OC(C)=O)cc21")
"inactive"
>>> group_label("Cc1ccc(-c2cc(=O)c3cc(C)c(C)c(C#N)c3o2)cc1")
"inactive"
>>> group_label("CC(C)N(CC(=O)NC(=O)c1ccccc1)Cc1ccccc1")
"inactive"
>>> group_label("O=C(Cn1ccc(=O)[nH]c1=O)Nc1ccc(C(=O)O)c(O)c1")
"inactive"
>>> group_label("CSc1cc(C)c(C#N)c(SC)n1")
"inactive"

Can you look up the reported call for c1ccc2c(-c3nn[nH]n3)nccc2c1 for me? inactive

Given CC1(C)SC(N=C=Nc2ccccc2)CN1C=O (configuration not stated) , state the outcome it received in this test. inactive

Each compound tested received a call. Report the one for CCCCCCCCCCCCOP(=O)(CC(=O)NCc1cc(C(C)(C)C)c(O)c(C(C)(C)C)c1)OCCCCCCCCCCCC . inactive

What did this assay record as the result for O=C(O)c1cc2ccccc2c2cc3ccccc3cc12 ? active

Which outcome was assigned to Nc1ccc(F)c(Cl)c1 in this test? inactive

How was CCCCCCCCCC[N+](C)(C)CC(O)CO (configuration not stated) classified in this test? inactive

Can you look up the reported call for O=C(c1ccccc1)N(Cc1ccccc1)Cc1ccccc1 for me? inactive

Short answer needed: outcome of this test for CC(=O)NC(c1ccc(Cl)cc1)(c1ccc(Cl)cc1)C(Cl)(Cl)Cl ? inactive

So what was the verdict on O=C(CBr)c1cc2ncccc2c2ccccc12 in this test? inactive

Which result was noted for this compound in the test: COCC(=O)Nc1ccccc1 inactive

Record request — test call for O=C(O)c1cccc([N+](=O)[O-])c1C(=O)O inactive

---

assay: NCI Yeast Anticancer Drug Screen. Data for the rad50 strain (AID 155);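 also: 0% = growth of vehicle-only cultures of the same strain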; details: S. cerevisiae rad50 strain growth inhibition; at 50.0 µM; active compounds read high
This is part of a sample that, as a whole, favours compounds with a hit. Of some 79,000 tested, about 15% had one in any assay. The source made the active and inactive calls. No stated cut-off is given here; in the data, active means growth inhibition above about 70%; inactive means the rest.
Property: growth inhibition

Recorded results for 3 compounds are shown here.
>>> observed("CCCC(=O)SCC[N+](C)(C)C")
"-10.2% (inactive)"
>>> observed("Nc1ccc(S(=O)(=O)Nc2nc(CN3CCCCC3)cs2)cc1")
"7.25% (inactive)"
>>> observed("O=C(c1ccccc1)C1N=NN(Cc2ccccc2[N+](=O)[O-])C1C(=O)c1ccccc1 (configuration not stated)")
"-6.75% (inactive)"

Fill in: growth inhibition of O=C(/C=C/c1ccccc1)[c-]1[c-][c-][c-][c-]1.[Fe].[c-]1[c-][c-][cH-][c-]1 is ___ 10.9% (inactive)

// growth inhibition lookup, key: CC(=O)c1cccc(NC(=O)N(C)C2CCCCC2)c1 5.65% (inactive)

Tell me the measured growth inhibition of CN(C)C=Nc1ccn(C2CC(F)C(CO)O2)c(=O)n1 (configuration not stated) , please. 4.55% (inactive)

growth inhibition lookup needed for N#C/C(=C(/N)N1CCOCC1)N1CCOCC1 , thanks. -18.4% (inactive)

---

experiment: NCI Yeast Anticancer Drug Screen. Data for the rad50 strain (AID 155);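 also: 0% = growth of vehicle-only cultures of the same strain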; conditions: S. cerevisiae rad50 strain growth inhibition; at 50.0 µM; active compounds read high
Compounds without any hit were thinned out: in the full panel of roughly 79,000, 15% have a hit.
Property: growth inhibition (%)
Give the value in % but do not write % after it.

# example entries with known answers
>>> observed("Cc1c([N+](=O)[O-])cc(C(C)(C)C)c(OC(=O)C(C)(C)C)c1[N+](=O)[O-]")
53.4
>>> observed("COC(=O)C1=C(C(=O)OC)C2CCCOC2=C(C)C1 (stereo unspecified)")
-1.35
>>> observed("O=C(CCl)NCCCCCNC(=O)CCl")
-11.7

What value of measured growth inhibition is listed for CC(=O)Nc1ccc2c(c1)Cc1ccc(S(C)(=O)=O)cc1-2 ? 23.9

Need growth inhibition, item CCOC(=O)/C(=C\c1cccc(F)c1)C(C)=O 20.6

Item under review: CCCCCCCC/C=C\CCCCCCCCCCCC(=O)O . Reported growth inhibition? -5.7

---

experiment: NCI Yeast Anticancer Drug Screen. Data for the rad50 strain (AID 155);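 also: 0% = growth of vehicle-only cultures of the same strain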; conditions: S. cerevisiae rad50 strain growth inhibition; at 50.0 µM; active compounds read high
Compounds without any hit were thinned out: in the full panel of roughly 79,000, 15% have a hit.
Kind request: treat 10% as inclusive, so growth inhibition at 10% or higher is true (1), anything lower is false (0).

Observe how each entry below is paired with its result.
>>> group_label("COC(=O)C1=CON2C3CC4CC(C3)CC(C4)C12C (stereo not given)")
"false (0)"
>>> group_label("Cc1ccc(-c2n[nH]c(=O)n2N)cc1")
"false (0)"
>>> group_label("CCN(CC)CCC(=O)Nc1cc(OC)cc2cccnc12")
"true (1)"

Does the compound CCOC(=O)C1C(c2ccc(Cl)cc2Cl)NC(c2ccc(C)cc2)C(C(=O)OC)S1(=O)=O (stereo not given) have recorded growth inhibition that is 10% or more? true (1)

Confirm if growth inhibition reported for the compound Nc1c2c(cc3c1C(=O)c1ccccc1C3=O)OCO2 is 10% or above. true (1)

---

Examples of molecules with documented growth inhibition follow.
test: NCI Yeast Anticancer Drug Screen. Data for the bub3 strain (AID 167); details: S. cerevisiae bub3 mutant strain, at 50.0 µM, active compounds read high
The panel holds about 79,000 compounds, 15% with a hit somewhere; the sample as a whole holds those more often.
Number only, in %; omit the unit.

Study these solved cases before continuing.
>>> observed("CC1=CC[N+](C)(C)C(C(N)=O)C1 (centres undefined)")
20.9
>>> observed("CCC(=O)OCC[N+](C)(C)C")
-38.5
>>> observed("CCOC(=O)c1nc2ccccc2c(=O)n1NC(=S)Nc1ccc(Cl)cc1")
-4.15
>>> observed("CC(C)CC(=O)OC1CCCCC1C1CCCCC1 (centres undefined)")
13.4
>>> observed("Nc1cc(Cl)c2c(c1)C(=O)c1ccccc1-2")
-5.3
>>> observed("Cc1cc(C)c[n+](-c2nc3c([O-])n(C)c(=O)n(C)c-3n2)c1")
-8.25

Request the reported growth inhibition associated with COC(=O)C1(NC(=O)C2(N3C(=O)c4ccccc4C3=O)CCCC2)CCCC1 -17.9

Look up growth inhibition for this molecule: CCOC(=O)C(C)C(=O)C(C)C (centres undefined) 13.7

Can you look up the measured growth inhibition of Cc1cc2ccccc2c(Br)c1C for me? -4.35

So what's the measured growth inhibition for this one? CCOC(=O)c1noc(Oc2ccc(Cl)cc2Cl)n1 -9.3

Param item = Nc1nc2c(c(=O)[nH]1)C(c1ccccc1)C(c1ccccc1)C2 (centres undefined) ; retrieve measured growth inhibition. -9.5
